- TEST DETAILS: Caspase-3/7 induction in CHO-K1 cells by small molecules, qHTS cell viability counter screen (AID 1346979); also: nearly all actives have a fitted effect of over 35% in size
- TEST CONTEXT: CellTiter-Fluor fluorescence, 17 h; series mostly up to 92.4 µM
Results filed as inconclusive are left out. The source made the active and inactive calls. Calls follow the shape of the dose curve; as a rule, active = well fitted cell-killing curve with a large enough effect in the repeat runs; inconclusive = weak or mixed curves, or effect the other way; inactive = no such curve, though single readings can be large or run the other way.
QUANTITY MEASURED: outcome

Below, each entry is followed by its recorded outcome result.
MOLECULE: OC(c1ccccc1)(c1ccccc1)C1CCNCC1
OBSERVED MEASUREMENT: inactive
//
MOLECULE: CCN(CC)C(C)C(=O)c1ccccc1 (centres undefined)
OBSERVED MEASUREMENT: inactive
//
MOLECULE: CN1CCN(C(=O)O[C@H]2c3nccnc3C(=O)N2c2ccc(Cl)cn2)CC1
OBSERVED MEASUREMENT: inactive
//
MOLECULE: CS(=O)(=O)c1cc(C(F)(F)F)ccc1C(=O)c1cnoc1C1CC1
OBSERVED MEASUREMENT: inactive
//
MOLECULE: CCOC(=O)C1(c2ccccc2)CCN(CCc2ccc(N)cc2)CC1
OBSERVED MEASUREMENT: inactive

For the next question, use this molecule.
Reported outcome, molecule `Cc1ncc2n1-c1ccc(Cl)cc1C(c1ccccc1F)=NC2` : ____
inactive
